# study.system: Serotonin 3 (5-HT3) receptor
# protocol.text: Compound was evaluated for 5-hydroxytryptamine 3 receptor binding
pKi: −log10 of the molar value.
metric.name: pKi

[[record]]
chem_smiles = "COc1cc(N)c(Cl)cc1C(=O)NC[C@@H]1CCN2CCC[C@@H]12"
val = 6.82


----------
# study.system: UniProt:P14416
# Sequence (P14416 whole entry): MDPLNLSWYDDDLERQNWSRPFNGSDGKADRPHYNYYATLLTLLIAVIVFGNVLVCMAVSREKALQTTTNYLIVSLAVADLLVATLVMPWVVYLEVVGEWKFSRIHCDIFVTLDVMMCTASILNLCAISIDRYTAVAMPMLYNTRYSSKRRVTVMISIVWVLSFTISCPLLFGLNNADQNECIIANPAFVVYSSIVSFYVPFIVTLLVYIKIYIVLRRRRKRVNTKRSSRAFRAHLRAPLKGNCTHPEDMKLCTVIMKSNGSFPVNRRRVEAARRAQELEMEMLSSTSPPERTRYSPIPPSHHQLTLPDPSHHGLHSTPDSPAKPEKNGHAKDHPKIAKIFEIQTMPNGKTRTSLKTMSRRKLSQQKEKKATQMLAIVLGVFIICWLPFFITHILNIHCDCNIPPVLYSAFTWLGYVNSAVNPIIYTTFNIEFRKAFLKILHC
# protocol.text: Compound was evaluated for Dopamine receptor D2 binding
metric.name: Ki

[[record]]
chem_smiles = "COc1cc(N)c(Cl)cc1C(=O)NC[C@@H]1CCN2CCC[C@@H]12"
val = "> 10 µM"


----------
# study.system: 5-hydroxytryptamine receptor 4 (Rattus norvegicus)
# Sequence (Q62758 whole entry): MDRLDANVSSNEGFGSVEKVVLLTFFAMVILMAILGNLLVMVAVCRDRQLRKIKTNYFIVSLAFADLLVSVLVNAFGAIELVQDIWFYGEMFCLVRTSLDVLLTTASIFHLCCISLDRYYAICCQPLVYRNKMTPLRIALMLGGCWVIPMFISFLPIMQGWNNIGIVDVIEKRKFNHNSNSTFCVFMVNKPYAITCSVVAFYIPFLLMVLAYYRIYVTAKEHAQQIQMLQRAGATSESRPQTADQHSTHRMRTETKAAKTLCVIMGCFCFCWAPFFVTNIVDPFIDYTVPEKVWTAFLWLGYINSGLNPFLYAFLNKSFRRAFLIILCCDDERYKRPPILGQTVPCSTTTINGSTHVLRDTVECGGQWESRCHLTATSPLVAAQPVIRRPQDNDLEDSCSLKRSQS
# protocol.text: Compound was tested for agonist activity at the 5-hydroxytryptamine 4 receptor in the rat tunica muscularis mucosae (TMM) assay
# Format: functional, tissue-based, Muscularis mucosa
Listed molecules paired with reported EC50
metric.name: EC50 (nM)

[[record]]
molecule = "COc1cc(N)c(Cl)cc1C(=O)NC[C@@H]1CCN2CCC[C@@H]12"
val = 23

[[record]]
molecule = "COc1cc(N)c(Cl)cc1C(=O)NC[C@@H]1CCN2CCC[C@@]12C (racemic)"
val = 449

